Quick reference for IC50 among some molecules
Biological target: IDH1 R132C (Homo sapiens, UniProt O75874, R132C)
Sequence (O75874 whole entry R132C): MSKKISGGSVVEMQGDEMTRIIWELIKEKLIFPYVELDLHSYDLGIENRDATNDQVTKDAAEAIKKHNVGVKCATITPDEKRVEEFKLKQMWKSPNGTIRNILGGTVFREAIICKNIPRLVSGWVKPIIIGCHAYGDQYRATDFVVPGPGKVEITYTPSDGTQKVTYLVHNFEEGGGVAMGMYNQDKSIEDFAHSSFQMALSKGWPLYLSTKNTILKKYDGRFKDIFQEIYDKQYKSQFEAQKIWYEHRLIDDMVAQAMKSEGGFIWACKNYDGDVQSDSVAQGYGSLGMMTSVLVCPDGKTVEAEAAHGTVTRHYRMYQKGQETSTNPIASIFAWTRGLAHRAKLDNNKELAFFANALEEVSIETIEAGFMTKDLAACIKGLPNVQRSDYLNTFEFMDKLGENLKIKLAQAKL
Experiment: IDH1 R132C enzymatic assay (NADPH depletion coupled to diaphorase/resazurin)
Type: biochemical
Conditions: IDH1 R132C enzymatic inhibition, IC50 class
Description: Assays were conducted in a 1536-well black solid-bottom plate with a final assay volume of 9 μL. For IDH1 R132C, 3 μL of enzyme (0.00032 mg/mL IDH1 […], 10% glycerol, 50 mM potassium phosphate pH 6.5, 5 mM MgCl2, 0.03% BSA) were added to the plate, followed by the addition of 23 nL of test compound in DMSO. […]
assay.readout: IC50

{"columns": ["molecule", "endpoint.value"],
 "data": [
  ["COc1ncc(C)cc1-n1c(C=C(C)C)c(C(=O)N2CCNCC2)cc(-c2nc(-c3ccc(Cl)cc3)cs2)c1=O [Compound 667]", "< 300 nM"],
  ["CCc1cccc(CC)c1-n1c2c(cc(C(=O)N(C)Cc3ccc(Cl)cc3)c1=O)C(=O)CC(C)(C)C2 [Compound 309]", "5000 to 20000 nM"],
  ["CCOc1ccc(OCC)c(-n2c(C=C(C)C)c(C(=O)N3CCNCC3)cc(-c3nc(-c4ccc(Cl)cc4)cs3)c2=O)c1 [Compound 348]", "< 300 nM"],
  ["CCc1cccc(CC)c1-n1c(CC(C)C)c(C(=O)N2CCNC(=O)C2)cc(-c2nc(-c3ccc(Cl)cc3)cs2)c1=O [Compound 91]", "< 300 nM"]
]}
